Listing of entries alongside the reported IC50.
Tested on: K-562
Protocol notes: Proliferation inhibition, CellTiter-Glo, K-562
Assay type: cell-based, human
Test settings: Homo sapiens, K562, 96 h; K-562 cells, IC50 (4 days), CellTiter-Glo; read-out: K-562 IC50

                              sample_smiles    result
0  C=CC(=O)N(C)CC(=O)NC[C@H](C)c1cccc(Nc2nc(N(C)CC)c(CC)nc2C(N)=O)c1  > 0.5 µM
1  CCc1nc(C(N)=O)c(Nc2cccc([C@@H](C)CNC(=O)CN(C)C(=O)/C=C/CN(C)C)c2)nc1C1CC1  > 0.5 µM
2  CCc1nc(C(N)=O)c(Nc2cc(CCNC(=O)[C@H](C)N(C)C(=O)/C=C/CN(C)C)cc(OC)c2)nc1N(C)C  > 0.5 µM
3  CCc1nc(C(N)=O)c(Nc2cccc([C@@H](C)CNC(=O)CN(C)C(=O)/C=C/CN3CCC3)c2)nc1N(C)CC  > 0.5 µM
4  CCc1nc(C(N)=O)c(Nc2ccc(F)c(CCNC(=O)CN(C)C(=O)/C=C/CN3CCC3)c2)nc1C1CC1  > 0.5 µM
5  C=CC(=O)N(C)[C@@H](C)C(=O)NCCc1cccc(Nc2nc(N(C)C)c(CC)nc2C(N)=O)c1  > 0.5 µM

Attention now shifts to the item below.
# get_value(readout= IC50, system= K-562) for `CCc1nc(C(N)=O)c(Nc2ccnc(CCNC(=O)[C@H](C)N(C)C(=O)/C=C/CN(C)C)c2)nc1N(C)C(C)C`
> 0.5 µM

Hello, the source for this data is patent US20240262795A1, in case you need it.
